Ref: PubChem BioAssay AID1845195

System: 156681-154-R-J1 tumor spheroid viability;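 further: spheroids exposed to compounds for 7 days before readout; percent of vehicle control viability where 100% = DMSO-treated spheroids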
Assay text: Anticancer human tumor 156681-154-R-J1 patient-derived melanoma cell line growth inhibition; active means viability on the fitted dose curve at most 10% of control; inactive means the rest
Test conditions: second compound 0.003 µM; first compound 0.0949 µM; spheroids with HUVEC and MSC
Method: Multicellular complex tumor spheroid response to DNA repair inhibitors in combination with DNA-damaging drugs This study explores the anticancer activities of DNA-damaging drugs and inhibitors of DNA damage repair, both as single agents and in combinations. […] Twenty-six patient-derived or established malignant cell lines were evaluated representing sarcoma, melanoma, small cell lung cancer (SCLC), non-small cell lung cancer (NSCLC), as well as bladder, ovarian and pancreatic cancers. […]
Your response should consist of one outcome taken from 1 = active, -1 = inactive

Molecule	Class
Cc1sc2c(c1C)C(c1ccc(Cl)cc1)=NC(CC(=O)Nc1ccc(O)cc1)c1nnc(C)n1-2 (stereo not drawn) + CC[C@@]1(O)C(=O)OCc2c1cc1n(c2=O)Cc2cc3c(CN(C)C)c(O)ccc3nc2-1	-1
CNCc1ccc(-c2cc(-c3nc(-c4ccc(S(=O)(=O)C(C)C)cc4)cnc3N)on2)cc1 + CC[C@@]1(O)C(=O)OCc2c1cc1n(c2=O)Cc2cc3c(CN(C)C)c(O)ccc3nc2-1	-1
Cn1ncnc1[C@H]1c2n[nH]c(=O)c3cc(F)cc(c23)N[C@@H]1c1ccc(F)cc1 + CC[C@@]1(O)C(=O)OCc2c1cc1n(c2=O)Cc2cc3c(CN(C)C)c(O)ccc3nc2-1	-1
CNCc1ccc(-c2cc(-c3nc(-c4ccc(S(=O)(=O)C(C)C)cc4)cnc3N)on2)cc1 + COc1cc2c(cc1O)CCNC21CSC2c3c(OC(C)=O)c(C)c4c(c3C(COC1=O)N1C(O)C3Cc5cc(C)c(OC)c(O)c5C(C21)N3C)OCO4	1
Cc1sc2c(c1C)C(c1ccc(Cl)cc1)=NC(CC(=O)Nc1ccc(O)cc1)c1nnc(C)n1-2 (stereo not drawn) + COc1cc2c(cc1O)CCNC21CSC2c3c(OC(C)=O)c(C)c4c(c3C(COC1=O)N1C(O)C3Cc5cc(C)c(OC)c(O)c5C(C21)N3C)OCO4	1
O=C(c1cc(Cc2n[nH]c(=O)c3ccccc23)ccc1F)N1CCN(C(=O)C2CC2)CC1 + CC[C@@]1(O)C(=O)OCc2c1cc1n(c2=O)Cc2cc3c(CN(C)C)c(O)ccc3nc2-1	-1

Query: Kindly provide the recorded test outcome for the following molecule: O=C(c1cc(Cc2n[nH]c(=O)c3ccccc23)ccc1F)N1CCN(C(=O)C2CC2)CC1 + COc1cc2c(cc1O)CCNC21CSC2c3c(OC(C)=O)c(C)c4c(c3C(COC1=O)N1C(O)C3Cc5cc(C)c(OC)c(O)c5C(C21)N3C)OCO4
Reply: 1

Query: Recorded call for Cn1ncnc1[C@H]1c2n[nH]c(=O)c3cc(F)cc(c23)N[C@@H]1c1ccc(F)cc1 + COc1cc2c(cc1O)CCNC21CSC2c3c(OC(C)=O)c(C)c4c(c3C(COC1=O)N1C(O)C3Cc5cc(C)c(OC)c(O)c5C(C21)N3C)OCO4 ?
Reply: 1
